experiment: Selectivity index, ratio of IC50 for rat L6 cells to IC50 for amastigote forms of Leishmania donovani MHOM/ET/67/L82; details: L6 cells
Measured selectivity ratio of individual entries

Compound	Relation operator	selectivity ratio
O=C(Cn1cnc([N+](=O)[O-])n1)N1CCN(c2ccc(Cl)c(Cl)c2)CC1	=	89
O=C(CN1CCN(c2ccc(C(F)(F)F)cc2)CC1)N1CCN(c2ccc(C(F)(F)F)cc2)CC1	=	6
O=C(CN1CCN(c2ccc(Cl)c(Cl)c2)CC1)N1CCN(c2ccc(Cl)c(Cl)c2)CC1	=	3
O=C(Cn1cnc([N+](=O)[O-])n1)N1CCN(C(c2ccccc2)c2ccc(Cl)cc2)CC1 (stereo unspecified)	=	14.6
N#Cc1ccccc1N1CCN(C(=O)Cn2cnc([N+](=O)[O-])n2)CC1	=	15
Cc1ccc(N2CCN(C(=O)Cn3cnc([N+](=O)[O-])n3)CC2)cc1	=	14
O=C(Cn1cnc([N+](=O)[O-])n1)N1CCN(C(=O)C2CC2)CC1	=	5.12
O=C(Cn1cnc([N+](=O)[O-])n1)N1CCN(c2ccccn2)CC1	=	9.35
Cc1ccc(N2CCN(CC(=O)N3CCN(c4ccc(C)cc4)CC3)CC2)cc1	=	9
O=C(Cn1cnc([N+](=O)[O-])n1)N1CCN(c2ccc(Cl)cc2)CC1	>	30
O=C(Cn1ccnc1[N+](=O)[O-])N1CCN(c2ncccn2)CC1	=	2.11
N#Cc1ccccc1N1CCN(CC(=O)N2CCN(c3ccccc3C#N)CC2)CC1	=	4
O=C(Cn1cnc([N+](=O)[O-])n1)N1CCN(c2ncccn2)CC1	=	6.52
O=C(CN1CCN(c2ccc(Cl)cc2)CC1)N1CCN(c2ccc(Cl)cc2)CC1	=	6
O=C(Cn1cnc([N+](=O)[O-])n1)N1CCN(c2ccc(C(F)(F)F)cc2)CC1	=	108
COc1ccc(N2CCN(C(=O)Cn3cnc([N+](=O)[O-])n3)CC2)cc1	=	7.18

###

target: UniProtKB P10635
Sequence (P10635 whole entry): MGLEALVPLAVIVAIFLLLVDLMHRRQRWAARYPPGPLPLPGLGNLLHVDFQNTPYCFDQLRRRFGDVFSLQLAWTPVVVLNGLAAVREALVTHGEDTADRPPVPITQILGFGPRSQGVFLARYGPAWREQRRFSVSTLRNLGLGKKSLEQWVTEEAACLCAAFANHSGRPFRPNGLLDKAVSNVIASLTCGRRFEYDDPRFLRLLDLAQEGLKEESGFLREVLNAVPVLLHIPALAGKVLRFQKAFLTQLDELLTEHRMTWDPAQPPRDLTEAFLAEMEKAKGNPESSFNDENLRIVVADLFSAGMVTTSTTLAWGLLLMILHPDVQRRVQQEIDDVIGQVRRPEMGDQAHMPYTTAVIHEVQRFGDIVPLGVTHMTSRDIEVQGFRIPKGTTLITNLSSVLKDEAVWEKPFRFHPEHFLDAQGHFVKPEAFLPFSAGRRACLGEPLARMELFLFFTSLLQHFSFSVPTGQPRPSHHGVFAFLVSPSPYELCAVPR
pIC50: −log10 of the molar value.
Endpoint: pIC50

Smiles record	Result
O=C(Cn1cnc([N+](=O)[O-])n1)N1CCN(Cc2ccc(Cl)c(Cl)c2)CC1	< 4.70

###

biological target: Cytochrome P450 2C19 (Homo sapiens, UniProt P33261)
Sequence (P33261 whole entry): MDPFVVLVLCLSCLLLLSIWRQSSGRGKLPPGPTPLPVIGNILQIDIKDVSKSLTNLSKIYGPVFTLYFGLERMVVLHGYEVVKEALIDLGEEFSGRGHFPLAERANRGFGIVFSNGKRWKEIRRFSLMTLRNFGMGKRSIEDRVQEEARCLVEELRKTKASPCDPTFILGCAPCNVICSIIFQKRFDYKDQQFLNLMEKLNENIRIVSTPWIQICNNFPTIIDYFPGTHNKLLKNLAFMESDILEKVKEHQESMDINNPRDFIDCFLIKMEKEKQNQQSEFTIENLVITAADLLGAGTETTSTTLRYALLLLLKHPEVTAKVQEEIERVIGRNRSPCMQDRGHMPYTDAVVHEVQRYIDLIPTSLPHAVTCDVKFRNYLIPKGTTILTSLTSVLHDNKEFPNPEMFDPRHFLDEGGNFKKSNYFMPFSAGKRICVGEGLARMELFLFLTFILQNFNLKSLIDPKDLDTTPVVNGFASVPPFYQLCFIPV
pIC50: −log10 of the molar value.

Smiles record	pIC50
O=C(Cn1cnc([N+](=O)[O-])n1)N1CCN(Cc2ccc(Cl)c(Cl)c2)CC1	< 4.70

###

system: Trypanosoma cruzi; assay: Activity of histidine tagged recombinant Trypanosoma cruzi type 1 nitroreductase assessed as NADH oxidation at 100 uM by spectrophotometry method
Please respond with class 1 when measured Activity is strictly beneath 700 nmol/min/mg, and with class 0 in all other cases.

Compound	Answer label
O=C(Cn1cnc([N+](=O)[O-])n1)N1CCN(c2ccc(Cl)cc2)CC1	class 0
O=C(Cn1cnc([N+](=O)[O-])n1)N1CCN(c2ccc(Cl)c(Cl)c2)CC1	class 0
O=C(Cn1cnc([N+](=O)[O-])n1)N1CCN(C(c2ccccc2)c2ccc(Cl)cc2)CC1 (centres undefined)	class 1
O=C(Cn1cnc([N+](=O)[O-])n1)N1CCN(Cc2ccc(Cl)c(Cl)c2)CC1	class 0
Cc1ccc(N2CCN(C(=O)Cn3cnc([N+](=O)[O-])n3)CC2)cc1	class 0
O=C(Cn1cnc([N+](=O)[O-])n1)N1CCN(c2ncccn2)CC1	class 0

###

experiment: Selectivity index, ratio of IC50 for rat L6 cells to IC50 for amastigote forms of Trypanosoma cruzi Tulahuen C4; conditions: L6 cells
Rule: Yes for selectivity ratio not less than 40, No for anything less.

Molecule	Answer label
O=C(CN1CCN(c2ccc(Cl)c(Cl)c2)CC1)N1CCN(c2ccc(Cl)c(Cl)c2)CC1	No
N#Cc1ccccc1N1CCN(C(=O)Cn2cnc([N+](=O)[O-])n2)CC1	Yes
O=C(Cn1cnc([N+](=O)[O-])n1)N1CCN(c2ccccn2)CC1	No
COc1ccc(N2CCN(C(=O)Cn3cnc([N+](=O)[O-])n3)CC2)cc1	Yes
O=C(Cn1cnc([N+](=O)[O-])n1)N1CCN(c2ncccn2)CC1	No
O=C(Cn1cnc([N+](=O)[O-])n1)N1CCN(c2ccc(Cl)cc2)CC1	Yes
O=C(CN1CCN(c2ccc(C(F)(F)F)cc2)CC1)N1CCN(c2ccc(C(F)(F)F)cc2)CC1	No
O=C(Cn1cnc([N+](=O)[O-])n1)N1CCN(C(=O)C2CC2)CC1	No
N#Cc1ccccc1N1CCN(CC(=O)N2CCN(c3ccccc3C#N)CC2)CC1	No
O=C(Cn1cnc([N+](=O)[O-])n1)N1CCN(C(c2ccccc2)c2ccc(Cl)cc2)CC1 (stereo not given)	Yes

###

assay: Half life in human liver S9 microsomes in absence of NADPH by LC-MS/MS method

Smiles record	half-life
O=C(Cn1cnc([N+](=O)[O-])n1)N1CCN(Cc2ccc(C(F)(F)F)cc2)CC1	> 180 min

###

tested on: Trypanosoma cruzi; experiment: Antichagasic activity against amastigote forms of Trypanosoma cruzi Tulahuen C4 assessed as inhibition of growth; type: functional, organism-based
As shown below, each of these molecules has a reported IC50 value.
Endpoint: IC50 (µM)

Molecule	Endpoint	Numeric readout
O=C(Cn1ccnc1[N+](=O)[O-])N1CCN(c2ncccn2)CC1	IC50	142
N#Cc1ccccc1N1CCN(C(=O)Cn2cnc([N+](=O)[O-])n2)CC1	IC50	2.85
Cc1ccc(N2CCN(C(=O)Cn3cnc([N+](=O)[O-])n3)CC2)cc1	IC50	1.33
O=C(Cn1cnc([N+](=O)[O-])n1)N1CCN(c2ncccn2)CC1	IC50	10
O=C(Cn1cnc([N+](=O)[O-])n1)N1CCN(c2ccccn2)CC1	IC50	4.64
COc1ccc(N2CCN(C(=O)Cn3cnc([N+](=O)[O-])n3)CC2)cc1	IC50	2.42
O=C(CN1CCN(c2ccc(Cl)cc2)CC1)N1CCN(c2ccc(Cl)cc2)CC1	IC50	6.06
O=C(Cn1cnc([N+](=O)[O-])n1)N1CCN(c2ccc(C(F)(F)F)cc2)CC1	IC50	0.596
O=C(Cn1cnc([N+](=O)[O-])n1)N1CCN(C(=O)C2CC2)CC1	IC50	148
O=C(Cn1cnc([N+](=O)[O-])n1)N1CCN(C(c2ccccc2)c2ccc(Cl)cc2)CC1 (stereo not drawn)	IC50	0.073
O=C(CN1CCN(c2ccc(C(F)(F)F)cc2)CC1)N1CCN(c2ccc(C(F)(F)F)cc2)CC1	IC50	2.71
N#Cc1ccccc1N1CCN(CC(=O)N2CCN(c3ccccc3C#N)CC2)CC1	IC50	25.7
Cc1ccc(N2CCN(CC(=O)N3CCN(c4ccc(C)cc4)CC3)CC2)cc1	IC50	29.8
O=C(Cn1cnc([N+](=O)[O-])n1)N1CCN(c2ccc(Cl)cc2)CC1	IC50	1.12
O=C(Cn1cnc([N+](=O)[O-])n1)N1CCN(c2ccc(Cl)c(Cl)c2)CC1	IC50	0.169
O=C(Cn1cnc([N+](=O)[O-])n1)N1CCN(Cc2ccc(Cl)c(Cl)c2)CC1	IC50	0.298
O=C(Cn1cnc([N+](=O)[O-])n1)N1CCN(Cc2ccc(C(F)(F)F)cc2)CC1	IC50	0.862
O=C(CN1CCN(c2ccc(Cl)c(Cl)c2)CC1)N1CCN(c2ccc(Cl)c(Cl)c2)CC1	IC50	1.81

###

Property: pIC50; scope: individual compounds
system: Leishmania donovani; assay: Antileishmanial activity against axenic amastigote forms of Leishmania donovani MHOM/ET/67/L82 assessed as inhibition of growth; type: functional, organism-based
pIC50: −log10 of the molar value.
Endpoint: pIC50

Smiles record	Numeric readout
O=C(CN1CCN(c2ccc(Cl)c(Cl)c2)CC1)N1CCN(c2ccc(Cl)c(Cl)c2)CC1	5.20
O=C(Cn1cnc([N+](=O)[O-])n1)N1CCN(Cc2ccc(Cl)c(Cl)c2)CC1	5.09
N#Cc1ccccc1N1CCN(CC(=O)N2CCN(c3ccccc3C#N)CC2)CC1	4.61
O=C(Cn1cnc([N+](=O)[O-])n1)N1CCN(c2ccccn2)CC1	4.73
O=C(Cn1cnc([N+](=O)[O-])n1)N1CCN(c2ccc(Cl)c(Cl)c2)CC1	5.91

###

experiment: Selectivity index, ratio of IC50 for rat L6 cells to IC50 for amastigote forms of Leishmania donovani MHOM/ET/67/L82; settings: l6
Endpoint: selectivity ratio

Smiles record	Numeric readout
O=C(Cn1cnc([N+](=O)[O-])n1)N1CCN(Cc2ccc(Cl)c(Cl)c2)CC1	7.36

###

biological target: Cytochrome P450 2C9 (Homo sapiens)
Sequence (P11712 whole entry): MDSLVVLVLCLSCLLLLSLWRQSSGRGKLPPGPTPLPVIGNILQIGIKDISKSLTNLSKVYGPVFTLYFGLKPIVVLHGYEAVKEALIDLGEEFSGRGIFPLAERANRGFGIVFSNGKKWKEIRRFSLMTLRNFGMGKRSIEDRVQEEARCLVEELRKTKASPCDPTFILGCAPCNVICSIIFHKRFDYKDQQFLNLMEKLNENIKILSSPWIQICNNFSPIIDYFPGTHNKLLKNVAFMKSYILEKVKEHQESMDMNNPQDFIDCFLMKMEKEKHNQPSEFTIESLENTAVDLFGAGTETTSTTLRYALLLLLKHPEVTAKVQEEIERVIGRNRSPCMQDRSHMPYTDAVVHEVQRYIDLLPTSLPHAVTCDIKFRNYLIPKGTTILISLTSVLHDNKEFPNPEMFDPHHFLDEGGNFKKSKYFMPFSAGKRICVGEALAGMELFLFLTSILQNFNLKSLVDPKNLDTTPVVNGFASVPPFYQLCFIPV
Endpoint: IC50

Smiles record	Measurement target	Endpoint	Result
O=C(Cn1cnc([N+](=O)[O-])n1)N1CCN(Cc2ccc(Cl)c(Cl)c2)CC1	Cytochrome P450 2C9 (Homo sapiens)	IC50	> 20 µM

###

system: Trypanosoma brucei brucei; assay: Activity of histidine tagged recombinant Trypanosoma brucei brucei type 1 nitroreductase assessed as NADH oxidation at 100 uM by spectrophotometry method

Compound	Measurement target	Activity / nmol/min/mg
O=C(Cn1cnc([N+](=O)[O-])n1)N1CCN(Cc2ccc(C(F)(F)F)cc2)CC1	Trypanosoma brucei brucei	3800
O=C(Cn1cnc([N+](=O)[O-])n1)N1CCN(c2ncccn2)CC1	Trypanosoma brucei brucei	2060
O=C(Cn1cnc([N+](=O)[O-])n1)N1CCN(Cc2ccc(Cl)c(Cl)c2)CC1	Trypanosoma brucei brucei	3730
O=C(Cn1cnc([N+](=O)[O-])n1)N1CCN(c2ccc(Cl)cc2)CC1	Trypanosoma brucei brucei	2180
O=C(Cn1cnc([N+](=O)[O-])n1)N1CCN(c2ccc(C(F)(F)F)cc2)CC1	Trypanosoma brucei brucei	2190
O=C(Cn1ccnc1[N+](=O)[O-])NCc1ccccc1	Trypanosoma brucei brucei	1540
Cc1ccc(N2CCN(C(=O)Cn3cnc([N+](=O)[O-])n3)CC2)cc1	Trypanosoma brucei brucei	2190
O=C(Cn1cnc([N+](=O)[O-])n1)N1CCN(c2ccc(Cl)c(Cl)c2)CC1	Trypanosoma brucei brucei	2320
O=C(Cn1cnc([N+](=O)[O-])n1)N1CCN(C(c2ccccc2)c2ccc(Cl)cc2)CC1 (centres undefined)	Trypanosoma brucei brucei	3910
